Reference source for all entries: paper PMC8255191

target: D2pol: polymerase domain of dengue 2 virus (Dengue virus type 2, UniProt P14340)
Measurement Label: IC50 (nM)
Kindly provide the numeric value in nM only, without the unit symbol.

GET /values?readout=IC50&system=D2pol: polymerase domain of dengue 2 virus (Dengue virus type 2, UniProt P14340)&item= Nc1ncnc2c1ncn2[C@@H]1O[C@H](COP(=O)(O)OP(=O)(O)OP(=O)(O)O)C[C@H]1O
270

###

target: ZIKV NS5: full length ZIKV protein (Zika virus)
Sequence (A0A024B7W1 2521-3423 limits assumed): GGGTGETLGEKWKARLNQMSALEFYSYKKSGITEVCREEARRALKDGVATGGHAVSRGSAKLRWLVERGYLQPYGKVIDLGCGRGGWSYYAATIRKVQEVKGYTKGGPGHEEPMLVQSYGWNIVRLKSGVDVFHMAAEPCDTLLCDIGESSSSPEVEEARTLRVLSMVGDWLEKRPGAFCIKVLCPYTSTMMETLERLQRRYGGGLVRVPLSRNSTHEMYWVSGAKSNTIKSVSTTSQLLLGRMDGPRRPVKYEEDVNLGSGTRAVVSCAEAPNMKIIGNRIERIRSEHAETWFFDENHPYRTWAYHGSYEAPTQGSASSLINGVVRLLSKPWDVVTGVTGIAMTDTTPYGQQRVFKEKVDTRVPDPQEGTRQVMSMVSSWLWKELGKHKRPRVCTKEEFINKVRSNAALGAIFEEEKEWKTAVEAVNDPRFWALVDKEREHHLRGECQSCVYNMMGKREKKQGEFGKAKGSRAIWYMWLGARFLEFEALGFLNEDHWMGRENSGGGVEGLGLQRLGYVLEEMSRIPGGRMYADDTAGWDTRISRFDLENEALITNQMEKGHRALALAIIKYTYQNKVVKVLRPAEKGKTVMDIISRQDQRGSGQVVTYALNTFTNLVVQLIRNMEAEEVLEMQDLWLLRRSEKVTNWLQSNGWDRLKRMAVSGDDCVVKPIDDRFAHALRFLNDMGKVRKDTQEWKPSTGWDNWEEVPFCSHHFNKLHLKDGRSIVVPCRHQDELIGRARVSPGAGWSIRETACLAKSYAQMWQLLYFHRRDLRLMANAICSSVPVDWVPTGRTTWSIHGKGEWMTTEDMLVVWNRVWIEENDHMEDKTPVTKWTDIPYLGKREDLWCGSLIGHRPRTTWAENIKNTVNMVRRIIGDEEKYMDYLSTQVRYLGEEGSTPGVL
Measurement Label: pIC50
// pIC50: -log10(molar conc.)

GET /values?readout=pIC50&system=ZIKV NS5: full length ZIKV protein (Zika virus)&item= Nc1ncnc2c1ncn2[C@@H]1O[C@H](COP(=O)(O)OP(=O)(O)OP(=O)(O)O)C[C@H]1O
6.00

###

target: D2 NS5: full length DENV protein (Dengue virus type 2); assay: In vitro polymerase assay; settings: read-out: IC50 D2 NS5, polymerase activity
Measurement Label: IC50
State the value, then name its unit.

GET /values?readout=IC50&system=D2 NS5: full length DENV protein (Dengue virus type 2)&item= Nc1ncnc2c1ncn2[C@@H]1O[C@H](COP(=O)(O)OP(=O)(O)OP(=O)(O)O)C[C@H]1O [3'dATP]
320 nM
